test system: Solanum nigrum (SOLNI); assay: Pre-emergence biological efficacy, glasshouse pot test; format: in vivo; details: 312 h, pre-emergence, rate 1,000 g/ha, evaluated after 13 days (100=total damage to plant; 0=no damage), read-out: Percentage damage caused to weed species, SOLNI
assayMetric: pest or weed control at 1000 g/ha

molecule: COC(=O)c1nc(C2CC2)nc(N(Cc2ccccc2)CC(O)c2ccccc2)c1Cl (stereo not drawn)
pest or weed control at 1000 g/ha: 10%

molecule: COC(=O)c1nc(C2CC2)nc(N(C)C(C)C(O)c2ccccc2)c1Cl (stereo not drawn)
pest or weed control at 1000 g/ha: 50%

molecule: COC(=O)c1nc(C2CC2)nc(N(Cc2ccccc2)C[Si](C)(C)C)c1Cl
pest or weed control at 1000 g/ha: 70%

Go through the list and state pest or weed control at 1000 g/ha for each entry.
1. COC(=O)c1nc(-c2ccc(F)c(OC)c2)nc(NCc2ccco2)c1Cl
2. COC(=O)c1nc(C2CC2)nc(N(CCO)Cc2ccc(Cl)nc2)c1Cl
3. COC(=O)c1nc(Cl)nc(NCc2ccccc2)c1Cl
4. COC(=O)c1nc(-c2ccc(Cl)cc2)nc(NCc2ccccc2)c1Cl

10%
100%
0%
30%

Could you tell me pest or weed control at 1000 g/ha for each of these molecules? They are listed below.
1. O=C(NCc1ccco1)c1nc(C2CC2)nc(NCc2ccco2)c1Cl
2. COC(=O)c1nc(-c2ccc(Cl)cc2OC)nc(NCc2ccco2)c1Cl
3. COC(=O)c1nc(-c2ccc(Cl)cc2C)nc(NCc2ccco2)c1Cl
4. O=C(OCc1ccccc1)c1nc(C2CC2)nc(NCc2ccco2)c1Cl
5. CCCN(Cc1ccccc1F)c1nc(C2CC2)nc(C(=O)OC)c1Cl
6. Cc1c(NCC2CC2)nc(C2CC2)nc1OCC(=O)NCC1CC1

1. 60%
2. 20%
3. 0%
4. 100%
5. 70%
6. 50%

# batch size: 5; output pest or weed control at 1000 g/ha per entry
1. COC(=O)c1nc(-c2ccc(C)c(F)c2)nc(NCc2ccco2)c1Cl
2. COC(=O)c1nc(-c2ccc(Cl)cc2)nc(NC2CC2)c1Cl
3. COC(=O)c1nc(-c2ccc(C)c(C)c2)nc(NCc2ccco2)c1Cl
4. COC(=O)c1nc(C2CC2)nc(N(C)Cc2cccc([N+](=O)[O-])c2)c1Cl
5. COC(=O)c1nc(C2CC2)nc(N(C)Cc2ccc(Br)cc2)c1Cl

["50%", "40%", "0%", "60%", "20%"]
